Ok so here's the combined literature set: pIC50 for Histone deacetylase 1 (Homo sapiens, UniProt Q13547).
pIC50 here is simply -log10 of the concentration when that concentration is written in mol/L.

Ask: # return pIC50 for CCCCCc1nc2cc(/C=C/C(=O)NO)ccc2n1CCNCC , test system: Histone deacetylase 1 (Homo sapiens, UniProt Q13547)
Reply: 7.47

Ask: # return pIC50 for Nc1ccc(-n2cc(CCN3CCC[C@H]3c3ccc(/C=C/C(=O)NO)cc3)nn2)cc1 , test system: Histone deacetylase 1 (Homo sapiens, UniProt Q13547)
Reply: 8.22

Ask: # return pIC50 for CC1(C)c2[nH]c3ccccc3c2CCN1Cc1ccc(/C=C/C(=O)NO)cc1 , test system: Histone deacetylase 1 (Homo sapiens, UniProt Q13547)
Reply: 6.82

---

Ok so here's the combined literature set: IC50 for Histone deacetylase 1 (Homo sapiens, UniProt Q13547).

Ask: # return IC50 for O=C(NO)c1ccc(Cn2ccc3c(N4CCN(Cc5cccnc5)CC4)ccnc32)cc1 , test system: Histone deacetylase 1 (Homo sapiens, UniProt Q13547)
Reply: 290 nM

Ask: # return IC50 for CC(=O)N1CCc2c1cccc2N1C(=O)N(Cc2ccc(-c3nnc(C(F)F)o3)cn2)C(=O)C1(C)C , test system: Histone deacetylase 1 (Homo sapiens, UniProt Q13547)
Reply: > 10000 nM

Ask: # return IC50 for CN1C(=O)C(C)(C)c2cc(C(=O)Nc3cc(-c4cccs4)ccc3N)ccc21 , test system: Histone deacetylase 1 (Homo sapiens, UniProt Q13547)
Reply: 4180 to 4200 nM

Ask: # return IC50 for CCC(=O)CCCCC[C@H](NC(=O)c1cncs1)c1ncc(-c2ccccc2)o1 , test system: Histone deacetylase 1 (Homo sapiens, UniProt Q13547)
Reply: < 100 nM

Ask: # return IC50 for COCCOc1ccc(C(=O)Nc2cc(-c3cccs3)ccc2N)nn1 , test system: Histone deacetylase 1 (Homo sapiens, UniProt Q13547)
Reply: 1 to 10 nM

Ask: # return IC50 for CC1(C)C(=O)N(c2ccccc2)C(=O)N1Cc1ccc(-c2nnc(C(F)F)o2)cc1F , test system: Histone deacetylase 1 (Homo sapiens, UniProt Q13547)
Reply: > 10000 nM

Ask: # return IC50 for CCNCCn1c(CC(C)(C)C)nc2cc(/C=C/C(=O)NO)ccc21 , test system: Histone deacetylase 1 (Homo sapiens, UniProt Q13547)
Reply: 96 nM

Ask: # return IC50 for CC1(C)C(=O)N(Cc2ccc(-c3nnc(C(F)F)o3)cn2)C(=O)N1c1cccc(Br)c1 , test system: Histone deacetylase 1 (Homo sapiens, UniProt Q13547)
Reply: > 10000 nM

---

Ok so here's the combined literature set: IC50 for Histone deacetylase 1 (Homo sapiens, UniProt Q13547).
Give the quantity in nM, number only.

Ask: Quickly give me recorded IC50 for O=C(/C=C/c1ccc(CN2CCC[C@@H]2C(=O)N2CCc3ccccc32)cc1)NO
Reply: 210

Ask: Quickly give me recorded IC50 for CC(C)(C)c1[nH]c2cc([N+](=O)[O-])ccc2c1CCN1CCCC1c1ccc(/C=C/C(=O)NO)cc1 (stereo not shown)
Reply: 7

Ask: Quickly give me recorded IC50 for Cc1ccc(C(=O)Nc2cc(N3CCNCC3)ccc2-c2ccc(/C=C/C(=O)NO)cc2C)cc1.Cl
Reply: 180

Ask: Quickly give me recorded IC50 for Cc1ccc(C(O)CN2CCCC2c2ccc(/C=C/C(=O)NO)cc2)cc1 (stereo not shown)
Reply: 8

Ask: Quickly give me recorded IC50 for CN(C)CCOc1ccc2c(c1)C(c1ccc(C(=O)NO)cc1)=Nc1ccccc1O2
Reply: 270

Ask: Quickly give me recorded IC50 for C#CCCc1nc2cc(/C=C/C(=O)NO)ccc2n1CC(C)(C)CN(C)C
Reply: 210

Ask: Quickly give me recorded IC50 for O=C(/C=C/c1ccccc1)NO
Reply: 133

Ask: Quickly give me recorded IC50 for Cc1c(Cc2ccc(C(=O)NO)cc2)c2ccccc2n1CC1CN(CC2(F)COC2)C1
Reply: 8590

Ask: Quickly give me recorded IC50 for CCN(CC)CCn1c(CCNC(=O)CC(C)(C)C)nc2cc(/C=C/C(=O)NO)ccc21
Reply: 77

Ask: Quickly give me recorded IC50 for O=C(NO)c1cnc(NC2(c3ccccc3)CCN(C(=O)OCc3ccccc3)CC2)nc1
Reply: 1010

Ask: Quickly give me recorded IC50 for Cc1c(Cc2ccc(C(=O)NO)cc2)c2ccccc2n1CCN1CCN(CCO)CC1
Reply: 1810

Ask: Quickly give me recorded IC50 for O=C(/C=C/c1ccc(CN2CCCC(C3C(=O)Nc4ccccc43)C2)cc1)NO (stereo not shown)
Reply: 8

Ask: Quickly give me recorded IC50 for CN(C)CC(C)(C)Cn1c(CCC(F)(F)F)nc2cc(/C=C/C(=O)NO)ccc21
Reply: 420

Ask: Quickly give me recorded IC50 for CC(C)(C)CN1CCC(c2ccnc3c2ccn3Cc2ccc(C(=O)NO)cc2)CC1
Reply: 930

Ask: Quickly give me recorded IC50 for Cc1c(Cc2ccc(C(=O)NO)cc2)c2ccccc2n1CCN1CCC(F)CC1
Reply: 8100

Ask: Quickly give me recorded IC50 for Cc1n[nH]c(C)c1CCN1CCC[C@H]1c1ccc(/C=C/C(=O)NO)cc1
Reply: 1.6

Ask: Quickly give me recorded IC50 for CC(O)(CO)CN1CCC(c2ccnc3c2ccn3Cc2ccc(C(=O)NO)cc2)CC1 (stereo not shown)
Reply: 200

---

Ok so here's the combined literature set: pIC50 for Histone deacetylase 1 (Homo sapiens).
pIC50 here is simply -log10 of the concentration when that concentration is written in mol/L.

Ask: Quickly give me recorded pIC50 for CC1(C)CC=C(c2cnc3c(ccn3Cc3ccc(C(=O)NO)cc3)c2)CC1
Reply: 5.15

Ask: Quickly give me recorded pIC50 for O=C(/C=C/c1ccc([C@@H]2CCCCCN2CCc2cnn3ccccc23)cc1)NO
Reply: 8.00

Ask: Quickly give me recorded pIC50 for O=C(NO)c1ccc(Cn2ccc3c(C4CCN(Cc5ccc(CN6CCOCC6)cc5)CC4)ccnc32)cc1
Reply: 6.49

Ask: Quickly give me recorded pIC50 for CCN(CC)CCn1c(CCCCCC#N)nc2cc(/C=C/C(=O)NO)ccc21
Reply: 7.36

Ask: Quickly give me recorded pIC50 for O=C(/C=C/c1ccc(-c2ccc(-n3ccnc3)cc2)cc1)NO
Reply: 5.45

Ask: Quickly give me recorded pIC50 for CCCNNC(=O)c1ccc(-c2ccc(NC(C)=O)cc2)cc1
Reply: 7.14

Ask: Quickly give me recorded pIC50 for O=C(NO)c1ccc(Cn2ccc3cc(C4=CCOCC4)cnc32)cc1
Reply: 5.98

---

Ok so here's the combined literature set: pIC50 for Histone deacetylase 1 (Homo sapiens, UniProt Q13547).
pIC50 here is simply -log10 of the concentration when that concentration is written in mol/L.

Ask: Quickly give me recorded pIC50 for O=C(NO)c1ccc(-c2csc(NS(=O)(=O)c3ccccc3)n2)s1
Reply: 5.95

Ask: Quickly give me recorded pIC50 for CCCN(CCC)CCn1cnc2cc(/C=C/C(=O)NO)ccc21
Reply: 6.96

Ask: Quickly give me recorded pIC50 for COc1cc(O[C@H]2CCN(c3ccc(C(=O)Nc4ccccc4N)cc3)C2)cc(OC)c1OC
Reply: 7.05

Ask: Quickly give me recorded pIC50 for CCCCCc1nc2cc(/C=C/C(=O)NO)ccc2n1CCNC(C)C
Reply: 7.40

---

Ok so here's the combined literature set: IC50 for Histone deacetylase 1 (Homo sapiens).

Ask: # return IC50 for O=C(/C=C/c1ccc(CN2CCC[C@H]2C(=O)c2c[nH]c3ccccc23)cc1)NO , test system: Histone deacetylase 1 (Homo sapiens)
Reply: 56 nM

Ask: # return IC50 for CC(C)(C)CCN1CCC(n2cnc3cc(/C=C/C(=O)NO)ccc32)CC1 , test system: Histone deacetylase 1 (Homo sapiens)
Reply: 410 nM

Ask: # return IC50 for CN(C)CCN(C)C(=O)NCc1ccc(C(=O)Nc2cc(-c3cccs3)ccc2N)cc1 , test system: Histone deacetylase 1 (Homo sapiens)
Reply: < 1000 nM

Ask: # return IC50 for Nc1ccc(-c2ccccc2)cc1NC(=O)c1cnc(N2CCNCC2)s1 , test system: Histone deacetylase 1 (Homo sapiens)
Reply: < 10 nM

Ask: # return IC50 for CC1(C)C(=O)N(Cc2ccc(-c3nnc(C(F)F)o3)cn2)C(=O)c2ccc(N3CCN(CC(F)(F)C(F)F)CC3)cc21 , test system: Histone deacetylase 1 (Homo sapiens)
Reply: > 10000 nM

Ask: # return IC50 for Nc1ccccc1NC(=O)c1ccc(N2CC[C@H](Oc3cccnc3)C2)cc1 , test system: Histone deacetylase 1 (Homo sapiens)
Reply: 400 nM

Ask: # return IC50 for Cc1ccc(NC(=O)CCCCCC(=O)NO)cc1 , test system: Histone deacetylase 1 (Homo sapiens)
Reply: 1190 nM

Ask: # return IC50 for Cc1nn(C)c(C)c1CCN1CCC[C@@H]1c1ccc(/C=C/C(=O)NO)cc1 , test system: Histone deacetylase 1 (Homo sapiens)
Reply: 100 nM

Ask: # return IC50 for CN1C[C@@H]2C[C@H]1CN2c1c(N(Cc2ccc(-c3nnc(C(F)F)o3)cc2F)c2ccccc2)c(=O)c1=O , test system: Histone deacetylase 1 (Homo sapiens)
Reply: > 10000 nM

Ask: # return IC50 for Nc1ccc(-c2ccc(F)cc2F)nc1NC(=O)N1Cc2cnc(CN3CC(F)C3)cc2C1 , test system: Histone deacetylase 1 (Homo sapiens)
Reply: 100 to 500 nM

Ask: # return IC50 for CC1(C)C(=O)N(Cc2ccc(-c3nnc(C(F)F)o3)cn2)C(=O)c2cc(-c3cccc4[nH]ccc34)ccc21 , test system: Histone deacetylase 1 (Homo sapiens)
Reply: > 10000 nM

Ask: # return IC50 for CN(C)CCn1c(CCC(C)(C)C)nc2cc(/C=C/C(=O)NO)ccc21 , test system: Histone deacetylase 1 (Homo sapiens)
Reply: 100 nM

Ask: # return IC50 for CN(C)CCNc1ccc2cc(C(=O)Nc3cc(-c4cccs4)ccc3N)cnc2c1 , test system: Histone deacetylase 1 (Homo sapiens)
Reply: 5 to 15 nM

Ask: # return IC50 for Cc1c(Cc2ccc(C(=O)NO)cc2)c2ccccc2n1CCCN1CCN(CC(C)(C)F)CC1 , test system: Histone deacetylase 1 (Homo sapiens)
Reply: 7600 nM

Ask: # return IC50 for COCCN1CCN(c2ccc3c(c2)C(C)(C)C(=O)N(Cc2ccc(-c4nnc(C(F)F)o4)cn2)C3=O)CC1 , test system: Histone deacetylase 1 (Homo sapiens)
Reply: > 10000 nM

Ask: # return IC50 for CCCCC/C=C\CCc1nc2cc(/C=C/C(=O)NO)ccc2n1CCNC , test system: Histone deacetylase 1 (Homo sapiens)
Reply: 17 nM

Ask: # return IC50 for CCN(CC)CCn1c(CC(C)CC(C)(C)C)nc2cc(/C=C/C(=O)NO)ccc21 (centres unmarked) , test system: Histone deacetylase 1 (Homo sapiens)
Reply: 62 nM
